ASSAY NOTES: Tissue distribution after intravenous administration
Type: in vivo
TEST PARAMETERS: Sprague-Dawley (SD), spleen; rat, IV 10 mg/kg, 0.5 h; read-out: T/P ratio, spleen

| MOLECULE SMILES | Kp at 0.5 h |
| --- | --- |
| CCCCCCCCCCCCCC[C@@H]1OC[C@H](N)[C@@H]1O | 18.5 |

----------
ASSAY NOTES: Pharmacokinetics after oral administration with or without taurocholate in control and bile-depleted rats
Assay type: in vivo
TEST PARAMETERS: male, SD, rat, plasma, 30 mg/kg, oral 30 mg/kg, control + TC 60 mg/kg, read-out: AUC12h

| COMPOUND | AUC(0-t) / ng·h/mL |
| --- | --- |
| CCCCCCCCCCCCCC[C@@H]1OC[C@H](N)[C@@H]1O [Jaspine B] | 1410 |

----------
ASSAY NOTES: Pharmacokinetics after oral administration with or without taurocholate in control and bile-depleted rats
Assay type: in vivo
TEST PARAMETERS: male, SD, rat, plasma, 30 mg/kg, oral 30 mg/kg, control + TC 60 mg/kg

| MOLECULE SMILES | READING UNIT | MRT |
| --- | --- | --- |
| CCCCCCCCCCCCCC[C@@H]1OC[C@H](N)[C@@H]1O | h | 5.5 |

----------
ASSAY NOTES: Tissue distribution after intravenous administration
Format: in vivo
TEST PARAMETERS: Sprague-Dawley, heart; rat, IV 10 mg/kg, 12 h; read-out: T/P ratio, heart
METRIC: Kp at 12 h

| MOLECULE | READOUT NUMBER |
| --- | --- |
| CCCCCCCCCCCCCC[C@@H]1OC[C@H](N)[C@@H]1O [Jaspine B] | 3.2 |

----------
ASSAY NOTES: Tissue distribution after intravenous administration
Type: in vivo
TEST PARAMETERS: Sprague-Dawley, brain, kidney, heart, spleen, 10 mg/kg; rat, single IV administration, 12 h; read-out: T/P ratios in brain, kidney, heart and spleen

| MOLECULE SMILES | Kp at 12 h |
| --- | --- |
| CCCCCCCCCCCCCC[C@@H]1OC[C@H](N)[C@@H]1O | 2 to 4 |

----------
ASSAY NOTES: Pharmacokinetics after oral administration with or without taurocholate in control and bile-depleted rats
Assay type: in vivo
TEST PARAMETERS: male, SD, rat, plasma, 30 mg/kg, oral 30 mg/kg, bile depletion + TC 60 mg/kg, read-out: AUC12h

| MOLECULE | AUC(0-t), ng·h/mL |
| --- | --- |
| CCCCCCCCCCCCCC[C@@H]1OC[C@H](N)[C@@H]1O [Jaspine B] | 828 |

----------
ASSAY NOTES: in vitro
Type: in vitro ADME, rat
TEST PARAMETERS: Sprague-Dawley, rat
Method: For the measurement of the effect of TC on the tight junction of biological membranes, the permeability of 50 μM Lucifer yellow, a marker of paracellular permeation, was measured in the presence of TC (0, 0.1, 1, 10, 100 mM). […] The fluorescence of Lucifer yellow in the samples was measured using a fluorescence spectrophotometer (Infinite 200 PRO, Tecan, Switzerland) with excitation at 425 nm and emission at 535 nm. […]

| COMPOUND | Papp at 80 min, 50 μM |
| --- | --- |
| CCCCCCCCCCCCCC[C@@H]1OC[C@H](N)[C@@H]1O [Jaspine B] | 0.11 ×10⁻⁶ cm/s |

----------
ASSAY NOTES: Pharmacokinetics after oral administration with or without taurocholate in control and bile-depleted rats
Type: in vivo
TEST PARAMETERS: male, SD, rat, plasma, 30 mg/kg, oral 30 mg/kg, bile-depleted rats, read-out: AUC12h

| MOLECULE SMILES | READING UNIT | AUC(0-t) |
| --- | --- | --- |
| CCCCCCCCCCCCCC[C@@H]1OC[C@H](N)[C@@H]1O | ng·h/mL | 80.3 |

----------
ASSAY NOTES: Pharmacokinetics after oral administration with or without taurocholate in control and bile-depleted rats
Type: in vivo
TEST PARAMETERS: male, Sprague-Dawley, rat, plasma, 30 mg/kg, oral 30 mg/kg, bile depletion + TC 60 mg/kg
METRIC: Cmax (ng/mL)

| MOLECULE SMILES | READOUT NUMBER |
| --- | --- |
| CCCCCCCCCCCCCC[C@@H]1OC[C@H](N)[C@@H]1O | 163 |

----------
ASSAY NOTES: Tissue distribution after intravenous administration
Format: in vivo
TEST PARAMETERS: Sprague-Dawley (SD), kidney; rat, IV 10 mg/kg, 12 h; read-out: T/P ratio, kidney
Description: Jaspine B was dissolved in a vehicle containing DMSO: PEG400: saline (2:4:4, v/v/v) and IV-injected via the femoral vein at a dose of 10 mg/kg (vehicle volume, 1 mL/kg). Blood samples were collected from the abdominal artery and animals were euthanized at 0.5 h and 12 h after IV dosing. The blood, brain, liver, kidney, heart, and spleen were immediately excised, gently washed with ice-cold saline, and weighed. The tissue samples were homogenized with 9 volumes of saline. […]
METRIC: Kp at 12 h

| MOLECULE SMILES | METRIC | READOUT NUMBER |
| --- | --- | --- |
| CCCCCCCCCCCCCC[C@@H]1OC[C@H](N)[C@@H]1O | Kp at 12 h | 4.7 |

The measured values listed here are drawn from paper PMC5618418.
